Parameter: melting point. Scope: all listed entries.
OBSERVABLE: melting point

* CN(C(=O)Nc1ccc2ccccc2c1)c1cccc(-c2ccc(CC(Nc3ccccc3C(=O)c3ccccc3)C(=O)O)cc2)c1 (stereo unspecified) | 125 °C
* CC(C(=O)O)c1ccc2c(c1)C(=O)Cc1ccc(Cl)cc1S2 (stereo unspecified) | 142 to 143 °C
* Cc1ccc2c(c1)c(=O)c1c(cnn1C)n2CC#N | 214 to 219 °C
* Cc1oc(-c2ccccc2)nc1CCOc1ccc(CCC2OC(=O)NC2=O)cc1 (stereo unspecified) | 193 to 194 °C
* CC12CC=C3C4=C(CCC3C1CCC2=O)CC1(CC4)OCCO1 (stereo unspecified) | 110 to 112 °C
* CCOc1nsc(S(C)(=O)=O)c1Cl | 85 to 87 °C
* C=CC(=O)OCC1(COC(=O)C=C)c2ccccc2-c2ccccc21 | 73 to 75 °C
* CCc1cc(CCc2nc3ccccc3o2)c(=O)[nH]c1C | 155 to 156 °C
* Cc1ccc(S(=O)(=O)OCC2Cc3cccc(-c4cccc(C(F)(F)F)c4)c3O2)cc1 (stereo unspecified) | 90 to 93 °C
* COc1ccc2c(c1)CCC(NCC(=O)O)C2 (stereo unspecified) | 195 to 198 °C
* CON=Cc1ccc2c(c1)c1c(n2CCc2cccc(F)n2)CC[C@@H](NC(=O)C2CC2)C1 | 223 to 225 °C
* CCCCc1ccc(-c2ccc(CCc3ccc(OC)cc3)cc2)c(F)c1 | 49 °C
* CCn1cc(-c2ccccc2)c(=O)c(-c2ccccc2)c1 | 171 °C
* Oc1cc2ccsc2c(Cl)c1Cl | 97 to 98 °C
* COc1cccc2c1oc1c(N)n(C)nc12 | 186 to 188 °C
* CCC(O)(c1ccc(OCc2cccc(C)n2)cc1)c1ccccc1OC (stereo unspecified) | 110 to 111 °C
* Cn1cc(C(O)(c2ccc3c(cnn3C(=O)c3ccccc3)c2)C(F)(F)F)c2ccccc21 (stereo unspecified) | 102 to 103 °C
* Cn1nc(C(=O)O)c(=O)n(C)c1=O | 220 to 223 °C
* Cc1ccc(S(=O)(=O)n2ccnc2C(O)(c2ccccc2)c2ccc(Cl)cc2)cc1 (stereo unspecified) | 116 to 118 °C
* COc1ccccc1C(NCC(=O)Nc1c(C(C)C)cccc1C(C)C)c1ccccc1 (stereo unspecified) | 133 to 134 °C
* Cc1cc(C)c(C(C#N)=CO)c(C)c1 | 124 to 126 °C
